- Measurement target: T1, SARS-CoV-2 RBD-mFc (SARS-CoV-2, UniProt P0DTC2 319-541)
- T1 construct: range 319-541
- Assay name: Octet QKe BLI, 1:1 global fit
Measurement kind: pKd
Convention used: pKd is expressed as -log10 of the molar concentration.

Lab note: SA4086 (antibody, V domains shown) VH: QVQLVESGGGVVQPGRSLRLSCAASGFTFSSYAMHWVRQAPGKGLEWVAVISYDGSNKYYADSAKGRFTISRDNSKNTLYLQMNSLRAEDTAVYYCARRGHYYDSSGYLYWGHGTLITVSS VL: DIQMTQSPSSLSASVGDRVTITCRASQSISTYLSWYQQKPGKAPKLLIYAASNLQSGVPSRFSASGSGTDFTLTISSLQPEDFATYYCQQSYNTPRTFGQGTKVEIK gave pKd of 9.97
